Measured on: recombinant soluble homotrimeric HA of A/Indonesia/5/05 (H5N1) (Influenza A virus A/Indonesia/5/2005(H5N1))
Assay method text: trimeric HA microarray, transfection supernatant set 3
Condition context: remark: other sources report otherwise
Measurement kind: Trimeric HA Binding: RLU (RLU)

{"columns": ["Binder", "Measurement kind", "Readout number"],
 "data": [
  ["TCN-504 (3251_K17) (antibody, V domains shown) VH: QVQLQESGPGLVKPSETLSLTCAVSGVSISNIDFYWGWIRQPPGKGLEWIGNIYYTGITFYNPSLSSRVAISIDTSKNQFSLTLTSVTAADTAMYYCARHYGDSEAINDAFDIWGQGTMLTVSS VL: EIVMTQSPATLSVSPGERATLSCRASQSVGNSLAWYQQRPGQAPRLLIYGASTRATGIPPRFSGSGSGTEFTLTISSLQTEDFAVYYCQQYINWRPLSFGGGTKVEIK", "Trimeric HA Binding: RLU", 18600],
  ["TCN-530 (5248_H10a) (antibody, V domains shown) VH: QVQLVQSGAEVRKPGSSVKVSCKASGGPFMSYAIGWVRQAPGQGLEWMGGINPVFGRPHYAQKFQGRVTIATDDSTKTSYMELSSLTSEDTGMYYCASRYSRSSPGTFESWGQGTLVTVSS VL: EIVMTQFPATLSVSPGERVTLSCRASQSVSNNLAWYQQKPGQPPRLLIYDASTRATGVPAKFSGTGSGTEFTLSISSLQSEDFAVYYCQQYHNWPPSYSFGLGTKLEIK", "Trimeric HA Binding: RLU", 25500],
  ["TCN-523 (5248_A17) (antibody, V domains shown) VH: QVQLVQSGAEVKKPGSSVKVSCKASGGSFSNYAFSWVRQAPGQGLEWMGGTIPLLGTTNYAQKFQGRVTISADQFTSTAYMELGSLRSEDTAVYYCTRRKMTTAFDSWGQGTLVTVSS VL: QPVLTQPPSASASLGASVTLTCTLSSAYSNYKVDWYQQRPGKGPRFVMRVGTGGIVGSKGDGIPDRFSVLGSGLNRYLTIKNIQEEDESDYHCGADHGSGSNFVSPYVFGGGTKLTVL", "Trimeric HA Binding: RLU", 22000],
  ["TCN-531 (5091_H13) (antibody, V domains shown) VH: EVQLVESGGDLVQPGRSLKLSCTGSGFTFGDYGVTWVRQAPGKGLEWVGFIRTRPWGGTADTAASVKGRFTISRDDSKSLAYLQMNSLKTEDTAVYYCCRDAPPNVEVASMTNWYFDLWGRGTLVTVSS VL: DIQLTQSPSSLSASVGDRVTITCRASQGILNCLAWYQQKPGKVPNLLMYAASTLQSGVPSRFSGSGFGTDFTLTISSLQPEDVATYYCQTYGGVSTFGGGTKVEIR", "Trimeric HA Binding: RLU", 54]
]}
